The measurements presented in this section are drawn from ChEMBL document CHEMBL4513216.

# assay notes: Toxicity liver stage against HepG2, at 10uM
# Format: cell-based
# Set-up: test concentration 10 uM, cell line HepG2-A16-CD81EGFP
# measurement conditions: human, HepG2-A16-CD81EGFP cells; read-out: INHIBITION
recorded endpoint: cytotoxicity at 10 µM (%)
Give bare numbers, in %.

Reference set (5 entries):
molecule	cytotoxicity at 10 µM (%)
O=C(O)c1nc(SCc2ccccc2)ncc1Br	0.231
O=C(Cc1ccc(F)cc1)N1CCn2cc(Cn3cccn3)nc2C1	4.58
CN(CCNC(=O)NCc1ccsc1)C1CCCC1	-12.4
O=C(CCCn1ccnc1)N[C@H]1CN(C2CCCC2)C[C@@H]1C1CC1	7.69
Cc1oncc1C(=O)N1CCC2(CC1)CC(c1ccccc1)C(=O)N2C (stereo not drawn)	-14.5

Quick request: cytotoxicity at 10 µM for each listed item, please.
1. CC(C)CN1C[C@H]2CCN(Cc3cccnc3)CC[C@H]2S1(=O)=O
2. CCc1ccc(O)c(C(=O)NC2CCN(Cc3ccncc3)CC2)c1
3. O=C1N(c2cccnc2)CCC12CCCN(Cc1cccnc1)C2 (stereo not drawn)
4. CC(C)NS(=O)(=O)c1cc(C(=O)O)cc(-c2ccc(CN(C)C)cc2)c1
5. CC(NC(=O)NCCCNS(C)(=O)=O)c1ccncc1 (stereo not drawn)
6. O=C(NCCC1CN(C2CCCC2)CCO1)c1c[nH]c(=O)[nH]c1=O (stereo not drawn)
7. Cc1noc([C@@H]2CC[C@@H]3[C@@H](CCN3S(C)(=O)=O)O2)n1
8. Cc1nc(C(=O)N2CCCC2c2noc(C)n2)c[nH]1 (stereo not drawn)

Output:
1. -1.8
2. 5.52
3. 0.951
4. 13.3
5. 1.08
6. 0.0436
7. -2.16
8. -4.95

Quick request: cytotoxicity at 10 µM for each listed item, please.
1. COc1ccc(CNCCc2cc(F)cc3c2OCOC3)cc1O
2. CNS(=O)(=O)CC1CCCN1c1ccc(Br)cn1 (stereo not drawn)
3. CCc1nnsc1C(=O)N1CCCN(Cc2cnn(C)c2)CC1
4. Cc1cc(C(=O)NCc2ccc(N3CCCC(C(N)=O)C3)cc2)on1 (stereo not drawn)
5. Cn1cnc(S(=O)(=O)NCC(O)c2ccc3c(c2)CCO3)c1 (stereo not drawn)

Output:
-9.26
3.1
-2.26
-9.56
-6.28

Quick request: cytotoxicity at 10 µM for each listed item, please.
1. CN(C)CCO[C@H]1CN(C(=O)c2cscn2)[C@@H]2COC[C@H]12
2. CC(C)c1noc(CNC2CCCN(Cc3noc(C4CC4)n3)C2)n1 (stereo not drawn)
3. Cc1nc(C2CCCN2C(=O)COc2ccccc2)ncc1C(N)=O (stereo not drawn)
4. COCCN(C)C(=O)Nc1ccc2c(ccn2CCOC)c1

Output:
1. 1.43
2. -3.19
3. -19.1
4. -3.83

Input: Could you please provide reported cytotoxicity at 10 µM for O=C(CCc1cccnc1)N1CCC2(CCN(CC3CCCC3)C2)C1 (stereo not drawn) ? Thanks!
Output: 3.82

---

# assay notes: Toxicity liver stage against HepG2, at 10uM
# Assay type: cell-based
# Parameters: test concentration 10 uM, cell line HepG2-A16-CD81EGFP
# measurement conditions: human, HepG2-A16-CD81EGFP cells; read-out: INHIBITION
Could you please report measured cytotoxicity at 10 µM for the items listed next?
Answers are plain numbers, in %.

Reference set (10 entries):
compound	cytotoxicity at 10 µM (%)
CCN(Cc1cnc(-c2ccccn2)nc1)C1CCS(=O)(=O)C1 (configuration not stated)	-5.24
Cc1ccnc(CC(C)N(C)c2cc(CN)nc(C)n2)c1 (configuration not stated)	-48.9
CNc1cc(C2CCCN2Cc2ccc(OCC(=O)O)cc2)ccn1 (configuration not stated)	-21.9
Cc1cc(CN2CCCC2Cn2cncn2)no1 (configuration not stated)	-10
Cc1cc(NC(=O)N(CCC#N)CCCN(C)C)ccc1F	-57.7
CSCCCNC(=O)c1coc(Cn2cnc3ccccc32)n1	-6.33
CN1CCCN(c2nccc(-c3c[nH]nc3C3CCCCC3)n2)CC1	0.746
O=C(Nc1cccnc1)c1noc2c1CN(S(=O)(=O)C1CC1)CC2	7.06
O=C1CCN(C(=O)NCc2cccc(Oc3ccccc3)c2)CCN1	4.11
CN(Cc1cccc(OC(F)(F)F)c1)Cc1cnn(C)c1	-3.41

Quick request: cytotoxicity at 10 µM for each listed item, please.
1. CCC(CNC(=O)CCn1cncn1)N1CCc2ccccc2C1 (configuration not stated)
2. Cc1cc2n(n1)CC(CNCc1ccc(-n3cccn3)nc1)CN2 (configuration not stated)

Output:
1: -137; 2: -10.5
